Measurement target: T1, hIL1RAP (Homo sapiens, UniProt Q9NPH3)
T1 sequence (Q9NPH3 21-367 limits assumed): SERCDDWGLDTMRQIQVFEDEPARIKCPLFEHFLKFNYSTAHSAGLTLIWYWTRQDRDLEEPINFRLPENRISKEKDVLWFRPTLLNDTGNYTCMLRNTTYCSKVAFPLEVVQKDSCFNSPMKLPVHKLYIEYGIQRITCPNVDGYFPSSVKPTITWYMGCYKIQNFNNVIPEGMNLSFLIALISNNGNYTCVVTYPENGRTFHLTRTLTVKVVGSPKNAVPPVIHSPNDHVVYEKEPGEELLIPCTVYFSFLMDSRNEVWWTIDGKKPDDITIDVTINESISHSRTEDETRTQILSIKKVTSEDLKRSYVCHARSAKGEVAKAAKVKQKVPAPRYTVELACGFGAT
Measurement notes: Kinetics of IL1RAP mAbs by Octet, human IL1RAP
Assay type: binding
Design: extracellular domain His-tagged, Cat #10121-H08H; His; purchased Sino Biological lot MB08MA1301 (catalogue number not given)
For each entry below, report its hIL1RAP kon(1/Ms) value.
Answers are plain numbers, in M⁻¹ s⁻¹.

Molecule	hIL1RAP kon(1/Ms), M⁻¹ s⁻¹
74804_07K10A: anti-IL1RAP mAb; VH SEQ ID NO:5, VL SEQ ID NO:22, κ light chain (antibody, V domains shown, 74804_07K10A VH; 74804_07K10A VL, 74804_29D13A VL and 74804_43F04A VL) VH: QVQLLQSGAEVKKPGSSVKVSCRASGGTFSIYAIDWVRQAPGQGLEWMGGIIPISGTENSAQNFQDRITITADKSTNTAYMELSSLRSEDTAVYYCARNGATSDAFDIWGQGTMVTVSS VL: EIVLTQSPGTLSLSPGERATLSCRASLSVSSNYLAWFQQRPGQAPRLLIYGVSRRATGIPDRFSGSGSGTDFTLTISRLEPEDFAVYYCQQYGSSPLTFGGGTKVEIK	392100
74804_45C18A: anti-IL1RAP mAb; VH SEQ ID NO:11, VL SEQ ID NO:27, κ light chain (antibody, V domains shown, 74804_45C18A VH; 74804_45C18A VL) VH: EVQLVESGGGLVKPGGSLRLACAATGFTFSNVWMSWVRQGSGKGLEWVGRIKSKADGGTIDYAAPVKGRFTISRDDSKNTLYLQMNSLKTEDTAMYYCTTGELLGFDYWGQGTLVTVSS VL: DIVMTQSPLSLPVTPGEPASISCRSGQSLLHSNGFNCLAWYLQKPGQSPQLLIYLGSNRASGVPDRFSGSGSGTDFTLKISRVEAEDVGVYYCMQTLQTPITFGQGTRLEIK	421500
74804_18L05A: anti-IL1RAP mAb; VH SEQ ID NO:4, VL SEQ ID NO:21, κ light chain (antibody, V domains shown, 74804_18L05A VH; 74804_18L05A VL) VH: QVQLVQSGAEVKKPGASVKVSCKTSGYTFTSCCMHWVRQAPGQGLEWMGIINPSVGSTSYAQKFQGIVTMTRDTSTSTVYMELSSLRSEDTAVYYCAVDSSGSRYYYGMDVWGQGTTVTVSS VL: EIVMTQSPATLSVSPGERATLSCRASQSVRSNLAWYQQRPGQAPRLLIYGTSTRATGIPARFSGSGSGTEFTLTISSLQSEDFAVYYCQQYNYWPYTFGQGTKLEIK	227800

// moving on: another record for hIL1RAP kon(1/Ms)
[in] May I ask what hIL1RAP kon(1/Ms) has been recorded for 74804_51C10A: anti-IL1RAP mAb; VH SEQ ID NO:8, VL SEQ ID NO:24, κ light chain (antibody, V domains shown, 74804_51C10A VH; 74804_51C10A VL) VH: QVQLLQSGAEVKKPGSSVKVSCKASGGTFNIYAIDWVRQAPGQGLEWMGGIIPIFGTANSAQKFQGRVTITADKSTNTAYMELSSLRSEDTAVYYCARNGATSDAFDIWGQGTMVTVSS VL: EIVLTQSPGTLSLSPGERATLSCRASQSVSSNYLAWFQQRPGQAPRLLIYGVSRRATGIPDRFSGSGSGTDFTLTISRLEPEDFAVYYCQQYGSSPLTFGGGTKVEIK ?
[out] 343500

Recorded values, source patent US20240392013A1.
